Where do these numbers come from? They come from patent US11130769B2.

biological target: MCL-1 (Homo sapiens (Human)); assay: Cell free Mcl-1:Bim affinity assay (fluorescence polarization competition); format: binding; conditions: 15 nM MCL-1, 5 nM FITC-Bim, 1 hour at room temperature; class symbols; read-out: BIM_Ki
Sequence (Q07820 whole entry): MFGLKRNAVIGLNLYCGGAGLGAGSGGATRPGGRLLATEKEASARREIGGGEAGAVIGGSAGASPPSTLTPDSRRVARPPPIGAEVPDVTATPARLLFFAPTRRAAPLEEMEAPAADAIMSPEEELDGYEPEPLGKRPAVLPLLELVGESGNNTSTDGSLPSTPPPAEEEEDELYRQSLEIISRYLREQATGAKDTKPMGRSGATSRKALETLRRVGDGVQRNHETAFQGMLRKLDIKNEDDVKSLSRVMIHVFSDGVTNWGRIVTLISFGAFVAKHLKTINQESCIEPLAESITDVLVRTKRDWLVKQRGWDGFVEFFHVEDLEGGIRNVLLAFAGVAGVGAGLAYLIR
readout.type: Ki

Example compounds with recorded Ki:
smiles_repr=CO[C@@H]1/C=C/CO[C@H](C)C(=O)NS(=O)(=O)c2ccc3c(c2)N(C[C@@H]2CC[C@H]21)C[C@@]1(CCCc2cc(Cl)ccc21)CO3 readout_type=Ki test_result="0.001 to 0.1 µM"
smiles_repr=COC(=O)N1C/C=C/[C@@H](OC)[C@@H]2CC[C@H]2CN2C[C@@]3(CCCc4cc(Cl)ccc43)COc3ccc(cc32)S(=O)(=O)NC(=O)[C@H]1C readout_type=Ki test_result="0.001 to 0.1 µM"

Below: the item to evaluate.
Q: Recorded Ki of CO[C@H]1/C=C/CCC(=O)NS(=O)(=O)c2ccc3c(c2)N(C[C@@H]2CC[C@H]21)C[C@@]1(CCCc2cc(Cl)ccc21)CO3 , please.
A: 0.001 to 0.1 µM

###

test system: H929 cells; assay: Cell viability assay (H929 10 FBS); assay type: cell-based; details: Homo sapiens, NCI-H929, 24 hours, read-out: H929_10FBS IC50
pIC50: −log10 of the molar value.
Here the recorded pIC50 is given for each entry.

Past entries and their recorded results:
smiles_repr=CO[C@@H]1CCCCC(=O)NS(=O)(=O)c2ccc3c(c2)N(C[C@@H]2CC[C@H]21)C[C@@]1(CCCc2cc(Cl)ccc21)CO3 assay_target="H929 cells" test_result="< 6.00"
smiles_repr=CCN1C/C=C/[C@H](OC(=O)N2CCC(OC)CC2)[C@@H]2CC[C@H]2CN2C[C@@]3(CCCc4cc(Cl)ccc43)COc3ccc(cc32)S(=O)(=O)NC(=O)C1(C)C assay_target="H929 cells" test_result="> 6.30"

Query compound follows.
Q: Given the compound CN(C)C(=O)CO[C@H]1/C=C/COC2(CC2)C(=O)NS(=O)(=O)c2ccc3c(c2)N(C[C@@H]2CC[C@H]21)C[C@@]1(CCCc2cc(Cl)ccc21)CO3 , what is its reported pIC50?
A: > 6.00

###

Reported pIC50 values follow for various molecules
Tested on: H929 cells
Assay: Cell viability assay (H929 10 FBS)
Type: cell-based
Settings: Homo sapiens, NCI-H929, 24 hours, read-out: H929_10FBS IC50
Method: Cell Viability Assay (H929 10 FBS) Dispense 10 μL aliquot of prepared H929 cells (1:1 ratio of cells:Trypan Blue (#1450013, Bio-Rad)) onto cell counting slide (#145-0011, Bio-Rad) and obtain cell density and cell viability using cell counter (TC20, Bio-Rad). Remove appropriate volume of resuspended cells from culture flask to accommodate 4000 cells/well @ 10 μL/well. […] Read plates with microplate reader (PheraStar, BMG Labtech) using 384 well luminescence mode.
pIC50: −log10 of the molar value.

molecule=CO[C@@H]1/C=C/CCCCC(=O)NS(=O)(=O)c2ccc3c(c2)N(C[C@@H]2CC[C@H]21)C[C@@]1(CCCc2cc(Cl)ccc21)CO3 assay_target="H929 cells" test_result="< 6.00"
molecule=COC[C@H]1C(=O)NS(=O)(=O)c2ccc3c(c2)N(C[C@@H]2CC[C@H]2[C@H](O)/C=C/C[C@@H]1C)C[C@@]1(CCCc2cc(Cl)ccc21)CO3 assay_target="H929 cells" test_result="> 6.00"
molecule="CC(C)C(=O)NS(=O)(=O)c1ccc2c(c1)N(CC1CCC1)CC1(CCCc3cc(Cl)ccc31)CO2 (centres unmarked)" assay_target="H929 cells" test_result="< 6.00"
molecule=CO[C@@H]1/C=C/CCC(=O)NS(=O)(=O)c2ccc3c(c2)N(C[C@@H]2CC[C@H]21)C[C@@]1(CCCc2cc(Cl)ccc21)CO3 assay_target="H929 cells" test_result="< 6.00"
molecule="CC(=O)NS(=O)(=O)c1ccc2c(c1)N(CC1CC1)CC1(CCCc3cc(Cl)ccc31)CO2 (centres unmarked)" assay_target="H929 cells" test_result="< 6.00"
molecule=COCCN1CCCN(CCO[C@H]2/C=C/CN(C)C(C)(C)C(=O)NS(=O)(=O)c3ccc4c(c3)N(C[C@@H]3CC[C@H]32)C[C@@]2(CCCc3cc(Cl)ccc32)CO4)CC1 assay_target="H929 cells" test_result="< 6.00"
molecule=CNC1CN(C(=O)O[C@H]2/C=C/COC(C)(C)C(=O)NS(=O)(=O)c3ccc4c(c3)N(C[C@@H]3CC[C@H]32)C[C@@]2(CCCc3cc(Cl)ccc32)CO4)C1 assay_target="H929 cells" test_result="> 6.30"
molecule=CC1(C)OC/C=C/[C@H](OCCN2CC[C@H](F)C2)[C@@H]2CC[C@H]2CN2C[C@@]3(CCCc4cc(Cl)ccc43)COc3ccc(cc32)S(=O)(=O)NC1=O assay_target="H929 cells" test_result="> 6.30"

Q: Looking for the measured pIC50 of COC(=O)N(C)[C@H]1/C=C/COC(C)(C)C(=O)NS(=O)(=O)c2ccc3c(c2)N(C[C@@H]2CC[C@H]21)C[C@@]1(CCCc2cc(Cl)ccc21)CO3 , can you help?
A: < 6.00

Q: Same question, CO[C@@H]1CCN(C(=O)O[C@H]2/C=C/COC3(CCC3)C(=O)NS(=O)(=O)c3ccc4c(c3)N(C[C@@H]3CC[C@H]32)C[C@@]2(CCCc3cc(Cl)ccc32)CO4)C1 this time
A: > 6.30

Q: Likewise for CC(=O)N(C)[C@H]1/C=C/COC(C)(C)C(=O)NS(=O)(=O)c2ccc3c(c2)N(C[C@@H]2CC[C@H]21)C[C@@]1(CCCc2cc(Cl)ccc21)CO3 ?
A: < 6.00
